Provide the reported Ki of each item.
# SYSTEM: NMDA
# METHOD_DESCRIPTION: NIMH-PDSP radioligand binding assay, NMDA

Please list Ki recorded for the compound `COc1ccccc1N1CCN(CCNC(=O)c2ccccn2)CC1`
> 10 µM

Please list Ki recorded for the compound `COc1ccccc1N1CCN(CCCN/C(=N\C#N)c2ccccn2)CC1`
> 10 µM

====

pKi: −log10 of the molar value.
Reported pKi, 5-HT5a (Homo sapiens, UniProt P47898).

Please list pKi recorded for the molecule COc1ccccc1N1CCN(CCCN/C(=N\C#N)c2ccccn2)CC1 [Compound 1]
< 5.00

Please list pKi recorded for the molecule COc1ccccc1N1CCN(CCNC(=O)c2ccncc2)CC1 [Compound 3]
5.74

Please list pKi recorded for the molecule COc1ccccc1N1CCN(CCNC(=O)c2ccccn2)CC1 [Compound 2]
< 5.00

====

Provide the reported pKi of each item.
# SYSTEM: 5-HT2B (Homo sapiens)
# Sequence (P41595 whole entry, species assumed): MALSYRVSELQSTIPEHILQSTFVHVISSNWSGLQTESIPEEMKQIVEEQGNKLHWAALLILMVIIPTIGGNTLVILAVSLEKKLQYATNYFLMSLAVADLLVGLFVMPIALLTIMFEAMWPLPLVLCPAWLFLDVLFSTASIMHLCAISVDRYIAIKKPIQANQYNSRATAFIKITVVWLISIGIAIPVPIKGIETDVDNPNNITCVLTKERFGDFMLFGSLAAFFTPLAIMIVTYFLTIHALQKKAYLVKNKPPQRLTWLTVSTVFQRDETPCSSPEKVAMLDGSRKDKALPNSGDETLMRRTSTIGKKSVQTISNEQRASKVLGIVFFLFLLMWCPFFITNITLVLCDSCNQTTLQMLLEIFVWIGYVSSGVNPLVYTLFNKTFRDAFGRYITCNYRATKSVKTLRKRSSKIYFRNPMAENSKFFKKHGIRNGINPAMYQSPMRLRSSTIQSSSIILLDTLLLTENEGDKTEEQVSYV
# pKi: negative log10 of molar concentration; output just the value

Please list pKi recorded for the compound COc1ccccc1N1CCN(CCCN/C(=N\C#N)c2ccccn2)CC1 [Compound 1]
6.39

Please list pKi recorded for the compound COc1ccccc1N1CCN(CCNC(=O)c2ccccn2)CC1 [Compound 2]
6.29

Please list pKi recorded for the compound COc1ccccc1N1CCN(CCNC(=O)c2ccncc2)CC1 [Compound 3]
6.86

====

# SYSTEM: D2R (Homo sapiens)
# Sequence (P14416 whole entry): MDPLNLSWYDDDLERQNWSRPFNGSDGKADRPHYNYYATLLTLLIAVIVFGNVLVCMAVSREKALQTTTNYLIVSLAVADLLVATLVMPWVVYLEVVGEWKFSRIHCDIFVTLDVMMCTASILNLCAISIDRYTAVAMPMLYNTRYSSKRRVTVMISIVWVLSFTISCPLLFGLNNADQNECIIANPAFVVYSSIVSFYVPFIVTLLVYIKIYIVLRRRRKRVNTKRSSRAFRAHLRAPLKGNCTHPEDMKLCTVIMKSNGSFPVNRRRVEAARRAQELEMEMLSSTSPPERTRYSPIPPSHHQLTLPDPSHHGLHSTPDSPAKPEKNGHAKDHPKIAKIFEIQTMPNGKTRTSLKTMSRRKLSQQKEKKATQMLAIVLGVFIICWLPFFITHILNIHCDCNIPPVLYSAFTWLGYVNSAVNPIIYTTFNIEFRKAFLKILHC
MEASUREMENT_NAME: Ki (nM)
API: value field is a number in nM; no unit string.

Please list Ki recorded for the molecule `COc1ccccc1N1CCN(CCCN/C(=N\C#N)c2ccccn2)CC1`
777

====

# SYSTEM: Alpha1B (Homo sapiens, UniProt P35368)
# Construct: NIMH-PDSP
# Sequence (P35368 whole entry): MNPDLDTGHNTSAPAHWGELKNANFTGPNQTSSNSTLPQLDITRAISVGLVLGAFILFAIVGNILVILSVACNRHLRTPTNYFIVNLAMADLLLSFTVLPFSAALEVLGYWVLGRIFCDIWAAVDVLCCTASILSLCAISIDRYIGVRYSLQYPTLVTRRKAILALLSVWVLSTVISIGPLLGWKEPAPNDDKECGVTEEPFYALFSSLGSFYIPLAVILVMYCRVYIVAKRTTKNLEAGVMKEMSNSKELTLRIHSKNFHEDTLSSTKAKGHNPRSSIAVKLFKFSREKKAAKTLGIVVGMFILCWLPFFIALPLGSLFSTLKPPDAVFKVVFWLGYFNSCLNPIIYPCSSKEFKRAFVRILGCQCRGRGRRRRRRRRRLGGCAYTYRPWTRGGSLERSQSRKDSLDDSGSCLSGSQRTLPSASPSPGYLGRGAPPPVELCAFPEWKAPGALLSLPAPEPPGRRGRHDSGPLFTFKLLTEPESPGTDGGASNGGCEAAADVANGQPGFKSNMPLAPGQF
# METHOD_DESCRIPTION: NIMH-PDSP radioligand binding assay, Alpha1B
Provide the reported Ki of each item.
API: value field is a number in µM; no unit string.

Please list Ki recorded for the molecule COc1ccccc1N1CCN(CCNC(=O)c2ccccn2)CC1 [Compound 2]
0.254

Please list Ki recorded for the molecule COc1ccccc1N1CCN(CCCN/C(=N\C#N)c2ccccn2)CC1 [Compound 1]
1.08

====

MEASUREMENT_NAME: Ki

Would you please give the reported Ki of `COc1ccccc1N1CCN(CCCN/C(=N\C#N)c2ccccn2)CC1` with Sigma1R (Homo sapiens, UniProt Q99720)?
520 nM

Would you please give the reported Ki of `COc1ccccc1N1CCN(CCNC(=O)c2ccccn2)CC1` with Sigma1R (Homo sapiens, UniProt Q99720)?
> 10000 nM

====

# SYSTEM: CB1, CB2
# METHOD_DESCRIPTION: NIMH-PDSP radioligand binding assay, CB1, CB2
pKi: −log10 of the molar value.
MEASUREMENT_NAME: pKi

Please list pKi recorded for the compound `COc1ccccc1N1CCN(CCNC(=O)c2ccccn2)CC1`
< 5.00

Please list pKi recorded for the compound `COc1ccccc1N1CCN(CCCN/C(=N\C#N)c2ccccn2)CC1`
< 5.00

====

MEASUREMENT_NAME: Ki

Would you please give the reported Ki of COc1ccccc1N1CCN(CCCN/C(=N\C#N)c2ccccn2)CC1 [Compound 1] with 5-HT3 (Homo sapiens, UniProt P46098)?
> 10 µM

Would you please give the reported Ki of COc1ccccc1N1CCN(CCNC(=O)c2ccccn2)CC1 [Compound 2] with 5-HT3 (Homo sapiens, UniProt P46098)?
> 10 µM

====

Target sequence: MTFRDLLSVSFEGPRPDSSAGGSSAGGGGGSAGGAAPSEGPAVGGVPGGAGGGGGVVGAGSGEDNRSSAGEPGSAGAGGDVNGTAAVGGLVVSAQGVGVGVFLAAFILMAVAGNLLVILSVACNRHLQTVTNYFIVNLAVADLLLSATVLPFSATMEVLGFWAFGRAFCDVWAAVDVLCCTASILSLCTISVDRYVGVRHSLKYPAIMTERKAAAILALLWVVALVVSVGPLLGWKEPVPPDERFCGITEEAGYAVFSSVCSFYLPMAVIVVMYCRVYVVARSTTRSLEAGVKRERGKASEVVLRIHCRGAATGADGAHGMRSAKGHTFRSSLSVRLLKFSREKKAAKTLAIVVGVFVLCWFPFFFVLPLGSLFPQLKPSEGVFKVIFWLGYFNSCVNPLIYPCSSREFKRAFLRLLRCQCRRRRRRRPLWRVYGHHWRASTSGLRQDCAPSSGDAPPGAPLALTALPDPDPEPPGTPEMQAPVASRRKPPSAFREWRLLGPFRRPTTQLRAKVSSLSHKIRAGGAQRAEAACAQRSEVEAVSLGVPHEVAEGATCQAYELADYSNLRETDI
MEASUREMENT_NAME: Ki
Note: state the figure and append the unit.

Please list Ki recorded for the compound `COc1ccccc1N1CCN(CCCN/C(=N\C#N)c2ccccn2)CC1`
213 nM

Please list Ki recorded for the compound `COc1ccccc1N1CCN(CCNC(=O)c2ccccn2)CC1`
53 nM

====

Reported pKi, NOP (Homo sapiens).
pKi: −log10 of the molar value.

Please list pKi recorded for the molecule COc1ccccc1N1CCN(CCCN/C(=N\C#N)c2ccccn2)CC1 [Compound 1]
< 5.00

Please list pKi recorded for the molecule COc1ccccc1N1CCN(CCNC(=O)c2ccccn2)CC1 [Compound 2]
< 5.00

====

Provide the reported Ki of each item.

Would you please give the reported Ki of `COc1ccccc1N1CCN(CCCN/C(=N\C#N)c2ccccn2)CC1` with 5-HT1B (Homo sapiens)?
> 10 µM

Would you please give the reported Ki of `COc1ccccc1N1CCN(CCNC(=O)c2ccccn2)CC1` with 5-HT1B (Homo sapiens)?
> 10 µM

====

Reported Ki, DAT (Homo sapiens, UniProt Q01959).

Please list Ki recorded for the compound `COc1ccccc1N1CCN(CCNC(=O)c2ccncc2)CC1`
> 10 µM

Please list Ki recorded for the compound `COc1ccccc1N1CCN(CCCN/C(=N\C#N)c2ccccn2)CC1`
> 10 µM

Please list Ki recorded for the compound `COc1ccccc1N1CCN(CCNC(=O)c2ccccn2)CC1`
> 10 µM

====

# SYSTEM: AMPA
# METHOD_DESCRIPTION: NIMH-PDSP radioligand binding assay, AMPA
MEASUREMENT_NAME: Ki

Please list Ki recorded for the molecule COc1ccccc1N1CCN(CCCN/C(=N\C#N)c2ccccn2)CC1 [Compound 1]
> 10 µM

Please list Ki recorded for the molecule COc1ccccc1N1CCN(CCNC(=O)c2ccccn2)CC1 [Compound 2]
> 10 µM

====

Provide the reported Ki of each item.
# SYSTEM: UniProt P23975
# Sequence (P23975 whole entry): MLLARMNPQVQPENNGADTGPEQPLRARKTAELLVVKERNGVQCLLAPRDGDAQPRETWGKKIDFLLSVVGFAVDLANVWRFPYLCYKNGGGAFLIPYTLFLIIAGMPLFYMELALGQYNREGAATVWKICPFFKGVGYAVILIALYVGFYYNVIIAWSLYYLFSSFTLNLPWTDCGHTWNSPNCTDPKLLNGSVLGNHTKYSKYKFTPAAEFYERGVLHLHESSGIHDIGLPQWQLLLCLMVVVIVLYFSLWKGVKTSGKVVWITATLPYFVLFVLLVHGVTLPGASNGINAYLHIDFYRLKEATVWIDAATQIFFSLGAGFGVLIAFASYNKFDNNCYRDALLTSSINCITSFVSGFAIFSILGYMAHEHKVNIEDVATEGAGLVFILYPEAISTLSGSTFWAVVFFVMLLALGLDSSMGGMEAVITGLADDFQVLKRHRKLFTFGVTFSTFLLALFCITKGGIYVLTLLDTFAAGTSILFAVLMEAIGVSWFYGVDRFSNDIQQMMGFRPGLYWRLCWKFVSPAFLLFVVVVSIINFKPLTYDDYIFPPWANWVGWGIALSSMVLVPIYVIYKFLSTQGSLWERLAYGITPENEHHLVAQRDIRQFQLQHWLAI

Please list Ki recorded for the compound `COc1ccccc1N1CCN(CCCN/C(=N\C#N)c2ccccn2)CC1`
> 10 µM

Please list Ki recorded for the compound `COc1ccccc1N1CCN(CCNC(=O)c2ccncc2)CC1`
> 10 µM

Please list Ki recorded for the compound `COc1ccccc1N1CCN(CCNC(=O)c2ccccn2)CC1`
> 10 µM

====

Reported Ki, PBR (Rattus norvegicus, UniProt P16257).

Please list Ki recorded for the molecule `COc1ccccc1N1CCN(CCCN/C(=N\C#N)c2ccccn2)CC1`
> 10 µM

Please list Ki recorded for the molecule `COc1ccccc1N1CCN(CCNC(=O)c2ccncc2)CC1`
> 10 µM

Please list Ki recorded for the molecule `COc1ccccc1N1CCN(CCNC(=O)c2ccccn2)CC1`
> 10 µM

====

Provide the reported Ki of each item.
# SYSTEM: Adenosine receptors
# METHOD_DESCRIPTION: NIMH-PDSP radioligand binding assay, Adenosine receptors

Please list Ki recorded for the compound `COc1ccccc1N1CCN(CCNC(=O)c2ccccn2)CC1`
> 10 µM

Please list Ki recorded for the compound `COc1ccccc1N1CCN(CCCN/C(=N\C#N)c2ccccn2)CC1`
> 10 µM

====

Provide the reported pKi of each item.
# pKi: negative log10 of molar concentration; output just the value

Would you please give the reported pKi of COc1ccccc1N1CCN(CCCN/C(=N\C#N)c2ccccn2)CC1 [Compound 1] with 5-HT7R (Homo sapiens)?
7.12

Would you please give the reported pKi of COc1ccccc1N1CCN(CCNC(=O)c2ccccn2)CC1 [Compound 2] with 5-HT7R (Homo sapiens)?
6.08

====

Sequence of the target: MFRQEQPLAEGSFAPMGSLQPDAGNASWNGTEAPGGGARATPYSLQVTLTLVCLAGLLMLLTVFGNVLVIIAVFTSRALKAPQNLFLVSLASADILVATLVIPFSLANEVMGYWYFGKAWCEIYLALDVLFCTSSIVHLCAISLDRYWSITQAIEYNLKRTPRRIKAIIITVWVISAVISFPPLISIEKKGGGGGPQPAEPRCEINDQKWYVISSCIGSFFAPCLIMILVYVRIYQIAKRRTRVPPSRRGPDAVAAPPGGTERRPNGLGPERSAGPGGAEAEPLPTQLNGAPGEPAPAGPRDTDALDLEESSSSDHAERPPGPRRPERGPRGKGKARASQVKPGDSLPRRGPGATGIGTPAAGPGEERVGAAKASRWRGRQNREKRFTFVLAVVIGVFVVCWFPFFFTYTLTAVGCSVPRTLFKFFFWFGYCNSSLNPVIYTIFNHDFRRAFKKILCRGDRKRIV
MEASUREMENT_NAME: Ki

Please list Ki recorded for the compound `COc1ccccc1N1CCN(CCNC(=O)c2ccccn2)CC1`
> 10000 nM

Please list Ki recorded for the compound `COc1ccccc1N1CCN(CCCN/C(=N\C#N)c2ccccn2)CC1`
453 nM
